target: T1, Human Tau 2N4R, wild type, recombinant full length (human, UniProt P10636 2-758); assay: SPR BIAcore, mAb captured by anti-human IgG, Tau flowed, 1:1 Langmuir
T1 construct: Full length 2N4R isoform; monomer in SPR and ELISA; heparin-induced aggregates or seeds in the functional assays; also called Tau441; Tau-441
T1 sequence (P10636 other isoform, or with tags, fused parts or gaps limits assumed): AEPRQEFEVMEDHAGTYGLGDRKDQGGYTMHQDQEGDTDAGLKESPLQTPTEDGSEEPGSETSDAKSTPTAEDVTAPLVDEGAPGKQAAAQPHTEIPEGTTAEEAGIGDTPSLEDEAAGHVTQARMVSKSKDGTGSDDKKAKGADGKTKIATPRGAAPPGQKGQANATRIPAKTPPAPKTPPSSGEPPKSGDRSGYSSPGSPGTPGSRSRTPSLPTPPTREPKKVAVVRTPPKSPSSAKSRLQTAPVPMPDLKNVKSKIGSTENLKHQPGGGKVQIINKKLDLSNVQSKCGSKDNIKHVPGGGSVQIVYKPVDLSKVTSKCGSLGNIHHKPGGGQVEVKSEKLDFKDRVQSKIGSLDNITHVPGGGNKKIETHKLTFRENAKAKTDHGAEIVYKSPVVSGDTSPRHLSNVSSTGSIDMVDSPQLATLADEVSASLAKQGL
value type: koff (s⁻¹)
Give just the number in s⁻¹; leave the unit off.

Example entries begin here.
>  <binder>
7G6-HCzu5-LCzu6 (antibody, human IgG1, kappa, V domains shown, humanized, human IgG1 kappa) VH: QVQLVQSGAEVKKPGASVKVSCKASGYTFTTYWITWVRQAPGQGLEWMGDIYPGSSISNYNEKFKSRVTMTVDTSTSTAYMELSSLRSEDTAVYYCAREDGYDAWFAYWGQGTLVTVSS VL: DVVMTQSPLSLPVTLGQPASISCRSSQSILHSNGNTYLEWYQQRPGQSPRLLISKVSNRFSGVPDRFSGSGSGTDFTLKISRVEAEDVGVYYCFQGSHVPFTFGQGTKLEIKR

>  <koff, s⁻¹>
0.000206

$$$$
>  <binder>
7G6-HCzu5-LCzu21 (antibody, human IgG1, kappa, V domains shown, humanized, human IgG1 kappa) VH: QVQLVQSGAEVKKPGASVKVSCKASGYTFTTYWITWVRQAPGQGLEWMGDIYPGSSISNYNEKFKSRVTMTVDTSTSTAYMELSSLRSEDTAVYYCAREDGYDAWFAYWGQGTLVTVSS VL: DVVMTQSPLSLPVTLGQPASISCRSSQSILHSNGNTYLEWFQQRPGQSPRLLISKVSNRFSGVPDRFSGSGSGTDFTLKISRVEAEDVGVYYCFQGSHVPFTFGQGTKLEIKR

>  <koff, s⁻¹>
0.000278

$$$$

We next turn to a different binder, shown below.
Q: Determine from records and report koff for 7G6-HCzu4-LCzu2 (antibody, human IgG1, kappa, V domains shown, humanized, human IgG1 kappa) VH: QVQLVQSGAEVKKPGASVKVSCKASGYTFTTYWITWVRQAPGQGLEWMGDIYPGSSICNYAQKFQGRVTMTVDTSTSTAYMELSSLRSEDTAVYYCAREDGYDAWFAYWGQGTLVTVSS VL: DVVMTQSPLSLPVTLGQPASISCRSSQSILHSNGNTYLEWYQQRPGQSPRLLICKVSNRFSGVPDRFSGSGSGTDFTLKISRVEAEDVGVYYCFQGSHVPFTFGQGTKLEIKR
Result: 0.000242
